Every entry's value here was drawn from paper PMC3947009.

Reported EC50 values are given for each entry in this list.
- test target: GluA2 LBD (S1S2J, rat GluA2-flop subunit, N754S) (Rattus norvegicus, UniProt P19491, DEL528-650/N775S/S652T/V651G)

NS(=O)(=O)c1cc2c(cc1Cl)NC(C(Cl)Cl)NS2(=O)=O (stereo not drawn) [TCMZ, trichlormethiazide] : 1000 to 2000 µM
NS(=O)(=O)c1cc2c(cc1Cl)NC(C1CC3C=CC1C3)NS2(=O)=O (stereo not drawn) [CYTZ, cyclothiazide] : 100 to 200 µM

Query string: EC50 lookup needed for NS(=O)(=O)c1cc2c(cc1C(F)(F)F)NCNS2(=O)=O [HFMZ, hydroflumethiazide] , thanks.
Result string: 2000 to 5000 µM

###

- test target: GluA2 LBD (S1S2J, rat GluA2-flop subunit, N754S) (Rattus norvegicus, UniProt P19491, DEL528-650/N775S/S652T/V651G)
Reported Kd values are given for each entry in this list.

NS(=O)(=O)c1cc2c(cc1Cl)NC(C1CC3C=CC1C3)NS2(=O)=O (centres unmarked) [CYTZ, cyclothiazide] : ~5 µM

Query string: Kd lookup needed for NS(=O)(=O)c1cc2c(cc1C(F)(F)F)NCNS2(=O)=O [HFMZ, hydroflumethiazide] , thanks.
Result string: ~5 µM
